# Tested on: RSK3(Kin.Dom.1-N-terminal);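 also: KINOMEscan kinase panel screen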
# Construct: gene RPS6KA2
# stated_conditions: concentration: 1 μM, replicates: in singlicate; n = 1
value_kind: %Inh (%)
Form entry: value (%) — number only.

Below, each entry is followed by its recorded %Inh result.
molecule	%Inh [%]
O=C(Nc1c(F)cccc1F)c1cc(C(=O)c2ccccc2F)c[nH]1	0
Cc1cc(-c2c(-c3ccc(F)cc3)ncn2CCCN2CCOCC2)nc(N)n1	9
NCCC(NC(=O)c1cc(Br)c(-c2ccnc3[nH]ccc23)s1)c1ccccc1.O=C(O)C(F)(F)F.O=C(O)C(F)(F)F (centres unmarked)	13
COc1cccc(NC(=O)NCCNc2ccnc(Nc3ccc(F)cc3)n2)c1	3
Cc1ccc(O)cc1Nc1ccnc2cc(-c3ccc(CN4CCCCC4)o3)ccc12	1
O=C(Nc1n[nH]c2nc(-c3ccccc3O)ccc12)C1CC1	11
CCn1c(-c2nonc2N)nc2c(-c3ccccc3)ncc(OCCCN)c21.O=C(O)C(F)(F)F.O=C(O)C(F)(F)F	99.7

Let's switch to this molecule now.
q: Can you look up the measured %Inh of Cn1cc(-c2ccc3c(c2)CCN3C(=O)Cc2cc(F)cc(F)c2F)c2c(N)ncnc21 for me?
a: 12
